# experimental-target: plasma purified human antithrombin III (AT-III) in complex with full-length unfractionated heparin (UFH)
measurement-name: K0.5-mut/K0.5-wt

State the recorded K0.5-mut/K0.5-wt for this entry: FIXa R318Y/R338E/R403E/E410S (protein) chain 1: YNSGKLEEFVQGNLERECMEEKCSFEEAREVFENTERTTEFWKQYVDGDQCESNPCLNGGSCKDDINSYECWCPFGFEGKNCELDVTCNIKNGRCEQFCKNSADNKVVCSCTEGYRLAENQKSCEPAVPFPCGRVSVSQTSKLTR chain 2: VVGGEDAKPGQFPWQVVLNGKVDAFCGGSIVNEKWIVTAAHCVETGVKITVVAGEHNIEETEHTEQKRNVIRIIPHHNYNAAINKYNHDIALLELDEPLVLNSYVTPICIADKEYTNIFLKFGSGYVSGWGRVFHKGYSALVLQYLRVPLVDRATCLESTKFTIYNNMFCAGFHEGGRDSCQGDSGGPHVTEVEGTSFLTGIISWGEECAMKGKYGIYTKVSEYVNWIKSKTKLT
> 517 fold
